target: guinea pig NK1 receptor (guinea pig, UniProt P30547 1-407); test: cell-based or functional assay
Sequence (P30547 whole entry): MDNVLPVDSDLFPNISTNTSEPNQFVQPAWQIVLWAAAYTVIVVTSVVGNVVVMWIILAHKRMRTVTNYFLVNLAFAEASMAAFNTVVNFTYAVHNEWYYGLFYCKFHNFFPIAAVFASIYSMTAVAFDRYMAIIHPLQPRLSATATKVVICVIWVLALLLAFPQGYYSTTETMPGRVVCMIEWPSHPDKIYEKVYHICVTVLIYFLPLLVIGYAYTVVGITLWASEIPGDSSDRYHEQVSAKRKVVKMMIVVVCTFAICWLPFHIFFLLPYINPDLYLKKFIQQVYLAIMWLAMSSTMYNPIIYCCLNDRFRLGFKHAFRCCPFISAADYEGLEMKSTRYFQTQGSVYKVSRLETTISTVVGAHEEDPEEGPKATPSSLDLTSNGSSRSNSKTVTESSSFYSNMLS
Bridge positions count the residues as written; N and C are the ends. Square brackets hold non-standard residues; d marks the D form. Ends that are not written are not given here. * marks the point of attachment. NH(3,5-(CF3)2-benzyl) = FC(F)(F)c1cc(CN*)cc(C(F)(F)F)c1; OBzl(3,5-(CF3)2) = FC(F)(F)c1cc(CO*)cc(C(F)(F)F)c1; OBn(OMe)2 = C-terminal OBn(OMe)2 ester; Dmt = Cc1cc(O)cc(C)c1C[C@H](N)C(=O)O
Reported GPI/LMMP SP antagonist Ke values for the following binders.
Please respond with the number in nM and leave the unit unwritten.

Some solved cases for reference:
>>> reported("Y[dA]GFMPLW-{OBn(OMe)2} [TyrDAlaGlyPheMetProLeuTrpOBn(OMe)2 (TY030)]")
4.1
>>> reported("Y[dA]GF[dF]PLW-{OBzl(3,5-(CF3)2)} [TyrDAlaGlyPheDPheProLeuTrpOBn(CF3)2 (TY007)]")
69.6
>>> reported("Y[dC]GFCPLW-{NH(3,5-(CF3)2-benzyl)} (disulfide 2-5, also called [D-Cys2, Cys5]) [Tyr[DCysGlyPheCys]ProLeuTrpNHBn(CF3)2 (TY039)]")
434

Returns the measured GPI/LMMP SP antagonist Ke for the input binder. Input: Y[dC]GF[dC]PLW-{NH(3,5-(CF3)2-benzyl)} (disulfide 2-5) [Tyr[DCysGlyPheDCys]ProLeuTrpNHBn(CF3)2 (TY037)]
4.7

Returns the measured GPI/LMMP SP antagonist Ke for the input binder. Input: [Dmt][dA]GFMPLW-{OBzl(3,5-(CF3)2)} [DmtDAlaGlyPheMetProLeuTrpOBn(CF3)2 (TY033)]
24.5

Returns the measured GPI/LMMP SP antagonist Ke for the input binder. Input: Y[dA]GFLPLW-{OBzl(3,5-(CF3)2)} [TyrDAlaGlyPheLeuProLeuTrpOBn(CF3)2 (TY004)]
19.4

Returns the measured GPI/LMMP SP antagonist Ke for the input binder. Input: YAGFXPLW (D-Ala at 2; Nle at 5 (X); C-terminal NH-Bn(CF3)2 amide) [TyrDAlaGlyPheNleProLeuTrpNHBn(CF3)2 (TY045)]
40.8

Data provenance: patent US8026218
